Hey, just so you know, these numbers are from ChEMBL document CHEMBL1614632.

The compounds listed here are annotated with their clearance.
Assay: clinical
Conditions: human, in vivo, iv, CL
Answer format: numeric, mL/min/kg implied, no suffix.

Below, 8 compounds whose answers are already recorded.
>  <COMPOUND>
CC1CCCC(C)N1CCCC(O)(c1ccccc1)c1ccccn1 (centres undefined)

>  <OUTPUT UNIT>
mL/min/kg

>  <RECORDED NUMBER>
1.8

$$$$
>  <COMPOUND>
CC(=N)N1CC[C@H](SC2=C(C(=O)O)N3C(=O)[C@H]([C@@H](C)O)[C@H]3C2)C1

>  <OUTPUT UNIT>
mL/min/kg

>  <RECORDED NUMBER>
2.6

$$$$
>  <COMPOUND>
COCc1c(C(C)C)nc(C(C)C)c(/C=C/[C@@H](O)C[C@@H](O)CC(=O)O)c1-c1ccc(F)cc1

>  <OUTPUT UNIT>
mL/min/kg

>  <RECORDED NUMBER>
2.9

$$$$
>  <COMPOUND>
Cn1c(=O)c2c(ncn2C)n(C)c1=O

>  <OUTPUT UNIT>
mL/min/kg

>  <RECORDED NUMBER>
1.4

$$$$
>  <COMPOUND>
Cc1[nH]c(=O)c(C#N)cc1-c1ccncc1

>  <OUTPUT UNIT>
mL/min/kg

>  <RECORDED NUMBER>
6.2

$$$$
>  <COMPOUND>
CN1C(C(=O)Nc2ccccn2)=C(O)c2sccc2S1(=O)=O

>  <OUTPUT UNIT>
mL/min/kg

>  <RECORDED NUMBER>
0.03

$$$$
>  <COMPOUND>
O=C(CCCN1CCC(n2c(O)nc3ccccc32)CC1)c1ccc(F)cc1

>  <OUTPUT UNIT>
mL/min/kg

>  <RECORDED NUMBER>
8.3

$$$$
>  <COMPOUND>
CC(Oc1ccccc1)C(=O)N[C@@H]1C(=O)N2[C@@H]1SC(C)(C)[C@@H]2C(=O)O (some centres undefined)

>  <OUTPUT UNIT>
mL/min/kg

>  <RECORDED NUMBER>
4.2

$$$$

We next turn to a different compound, shown below.
Input line: // clearance lookup, key: CN(C)C(=O)Oc1cccc([N+](C)(C)C)c1.[Br-] [NEOSTIGMINE BROMIDE]
Output line: 9.2
